# experimentalTarget: Human Factor B (Homo sapiens, UniProt P00751)
# Sequence (P00751 26-764): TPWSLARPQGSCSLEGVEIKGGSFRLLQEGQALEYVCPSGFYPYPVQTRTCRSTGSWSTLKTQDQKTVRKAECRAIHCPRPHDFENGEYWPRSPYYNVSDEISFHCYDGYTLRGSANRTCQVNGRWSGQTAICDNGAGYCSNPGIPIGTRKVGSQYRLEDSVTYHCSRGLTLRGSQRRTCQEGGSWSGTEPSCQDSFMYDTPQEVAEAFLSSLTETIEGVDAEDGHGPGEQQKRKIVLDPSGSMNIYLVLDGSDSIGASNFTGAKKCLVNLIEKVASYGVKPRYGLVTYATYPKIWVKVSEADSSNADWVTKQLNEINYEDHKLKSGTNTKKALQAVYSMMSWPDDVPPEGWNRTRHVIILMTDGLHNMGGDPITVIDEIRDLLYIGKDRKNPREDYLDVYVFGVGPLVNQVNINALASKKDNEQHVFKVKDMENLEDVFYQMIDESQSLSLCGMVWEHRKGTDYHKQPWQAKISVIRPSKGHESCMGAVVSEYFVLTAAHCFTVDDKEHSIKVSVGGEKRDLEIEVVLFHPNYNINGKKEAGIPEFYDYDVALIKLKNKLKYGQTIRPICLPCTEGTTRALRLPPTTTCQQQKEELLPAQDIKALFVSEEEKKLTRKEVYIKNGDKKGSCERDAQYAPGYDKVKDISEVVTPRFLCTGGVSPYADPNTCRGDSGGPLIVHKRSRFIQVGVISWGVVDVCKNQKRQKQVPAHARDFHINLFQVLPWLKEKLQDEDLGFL
# experimentNotes: Human Factor B cleavage EC50 in 80% human plasma (Table 10A)
# Format: biochemical
# measurementParameters: chymase-based engineered proteases; no plasma stated; read-out: fB Cleavage EC50
# Protocol: Cleavage of Factor B by various engineered proteases was evaluated. Engineered chymase-, MTSP-1-, and uPA-based proteases were tested. All references in this Example, including Tables 10A, 10B, 11A, and 11B, to engineered proteases are depicted in chymotrypsin numbering. The chymotrypsin numbering key for the modified protease domains of engineered proteases are found in Tables 2, 4, and 6 for uPA, MTSP-1, and chymase, respectively. […]
recordedMetric: pEC50
// returns pEC50 (minus log10 of molar concentration), number only

-- ask Consider the molecule C22S/V138I/L160V/S189T/A226R (protein, listed as Homo sapiens) IIGGTESKPHSRPYMAYLEIVTSNGPSKFCGGFLIRRNFVLTAAHCAGRSITVTLGAHNITEEEDTWQKLEVIKQFRHPKYNTSTLHHDIMLLKLKEKASLTLAVGTLPFPSQFNFVPPGRMCRIAGWGRTGVLKPGSDTLQEVKVRLMDPQACSHFRDFDHNLQLCVGNPRKTKTAFKGDSGGPLLCAGVAQGIVSYGRSDAKPPRVFTRISHYRPWINQILQAN and give its recorded pEC50.
-- reply 5.15

-- ask Consider the molecule C22S/A226R/F228A (protein, listed as Homo sapiens) IIGGTESKPHSRPYMAYLEIVTSNGPSKFCGGFLIRRNFVLTAAHCAGRSITVTLGAHNITEEEDTWQKLEVIKQFRHPKYNTSTLHHDIMLLKLKEKASLTLAVGTLPFPSQFNFVPPGRMCRVAGWGRTGVLKPGSDTLQEVKLRLMDPQACSHFRDFDHNLQLCVGNPRKTKSAFKGDSGGPLLCAGVAQGIVSYGRSDAKPPRVATRISHYRPWINQILQAN and give its recorded pEC50.
-- reply 5.29

-- ask Consider the molecule C22S/V138T/A190S/V213A/A226R (protein, listed as Homo sapiens) IIGGTESKPHSRPYMAYLEIVTSNGPSKFCGGFLIRRNFVLTAAHCAGRSITVTLGAHNITEEEDTWQKLEVIKQFRHPKYNTSTLHHDIMLLKLKEKASLTLAVGTLPFPSQFNFVPPGRMCRTAGWGRTGVLKPGSDTLQEVKLRLMDPQACSHFRDFDHNLQLCVGNPRKTKSSFKGDSGGPLLCAGVAQGIASYGRSDAKPPRVFTRISHYRPWINQILQAN and give its recorded pEC50.
-- reply 5.17

-- ask Consider the molecule C22S/V138A/S189T/A226R/F228M (protein, listed as Homo sapiens) IIGGTESKPHSRPYMAYLEIVTSNGPSKFCGGFLIRRNFVLTAAHCAGRSITVTLGAHNITEEEDTWQKLEVIKQFRHPKYNTSTLHHDIMLLKLKEKASLTLAVGTLPFPSQFNFVPPGRMCRAAGWGRTGVLKPGSDTLQEVKLRLMDPQACSHFRDFDHNLQLCVGNPRKTKTAFKGDSGGPLLCAGVAQGIVSYGRSDAKPPRVMTRISHYRPWINQILQAN and give its recorded pEC50.
-- reply 5.75

-- ask Consider the molecule C22S/V138S/S189T/A226R/F228M (protein, listed as Homo sapiens) IIGGTESKPHSRPYMAYLEIVTSNGPSKFCGGFLIRRNFVLTAAHCAGRSITVTLGAHNITEEEDTWQKLEVIKQFRHPKYNTSTLHHDIMLLKLKEKASLTLAVGTLPFPSQFNFVPPGRMCRSAGWGRTGVLKPGSDTLQEVKLRLMDPQACSHFRDFDHNLQLCVGNPRKTKTAFKGDSGGPLLCAGVAQGIVSYGRSDAKPPRVMTRISHYRPWINQILQAN and give its recorded pEC50.
-- reply 5.53
